target: DGKalpha (Homo sapiens); experiment: In vitro DGK inhibition assay (ADP-Glo, liposomes), DGKalpha; assay type: biochemical; set-up: hDGKalpha(1-735)-N-His; His (N); made in house; host or cells: Sf21 insect cells (baculovirus); settings: 4 nM DGK α, 25 μM ATP, 125 uM DLG in liposomes, 1 hour reaction
measured endpoint: IC50 (nM)

These solved cases illustrate the format of a correct answer.
Fill blank: measured IC50 of the molecule CC(C)(c1nnc(-c2ccc3c(c2)N(Cc2ccc(Oc4cc(F)cc(C(F)(F)F)c4)cc2)C(=O)[C@@H](N)CS3(=O)=O)o1)S(C)(=O)=O [Example 39] is ____.
34900

Entry under review: CS(=O)(=O)Cn1nnnc1-c1cc2c(cc1F)S(=O)(=O)C[C@H](N)C(=O)N2Cc1ccc(Oc2ccccc2)cc1 [Example 55] . Reported IC50?
18300

Consider the molecule CC(C)(c1nnc(-c2ccc3c(c2)N(Cc2ccc(OCc4ccc(F)cc4)cc2)C(=O)[C@@H](N)CS3(=O)=O)o1)S(C)(=O)=O [Example 12] and give its measured IC50.
669

Which IC50 is listed for CC(C)(c1nnc(-c2cc3c(cc2F)S(=O)(=O)C[C@H](N)C(=O)N3Cc2ccc(OCC(F)(F)F)cc2)o1)S(C)(=O)=O [Example 24] ?
431

I am curious: what IC50 value has been reported for CS(=O)(=O)C1(c2nnc(-c3cc4c(cc3F)S(=O)(=O)C[C@H](N)C(=O)N4Cc3ccc(Cl)cc3)o2)CC1 [Example 1] ?
2340

[A] COCC(C)(C)Oc1ccc(CN2C(=O)[C@@H](N)CS(=O)(=O)c3cc(F)c(-c4noc(C(C)(C)S(C)(=O)=O)n4)cc32)cc1 [Example 62]
[B] CC(C)(c1nnc(-c2ccc3c(c2)N(Cc2ccc(OCc4ccccc4F)cc2)C(=O)[C@@H](N)CS3(=O)=O)o1)S(C)(=O)=O [Example 14]
[C] COc1cc(Cl)cc(Oc2ccc(CN3C(=O)[C@@H](N)CS(=O)(=O)c4ccc(-c5nnc(C(C)(C)S(C)(=O)=O)o5)cc43)cc2)c1 [Example 41]
[D] CC(C)(c1nnc(-c2ccc3c(c2)N(Cc2ccc(-c4noc(C(F)(F)F)n4)cc2)C(=O)[C@@H](N)CS3(=O)=O)o1)S(C)(=O)=O [Example 17]
Rank the items in ascending order with respect to IC50. List labels; respect the requested ordering.
A, B, D, C
(A: 1070 nM, B: 2020 nM, D: 3350 nM, C: 41000 nM)

[1] CC(C)(c1nc(-c2cc3c(cc2F)S(=O)(=O)C[C@H](N)C(=O)N3Cc2ccc(Oc3ccccc3)nc2)no1)S(C)(=O)=O [Example 48]
[2] CC(C)(c1nc(-c2cc3c(cc2F)S(=O)(=O)C[C@H](N)C(=O)N3Cc2ccc(-c3noc(C(F)(F)F)n3)cc2)no1)S(C)(=O)=O [Example 46]
Of the two listed items, which has the higher IC50? First: 1 Second: 2 Return value: the label identifying the chosen record.
1
(1: 1960 nM, 2: 1100 nM)

----------
molecular target: DGKalpha (Homo sapiens, UniProt P23743); test: In vitro DGK inhibition assay (ADP-Glo, liposomes), DGKalpha; type: biochemical; set-up: hDGKalpha(1-735)-N-His; His (N); made in house; host or cells: Sf21 insect cells (baculovirus); settings: 4 nM DGK α, 25 μM ATP, 125 uM DLG in liposomes, 1 hour reaction
Sequence (P23743 whole entry): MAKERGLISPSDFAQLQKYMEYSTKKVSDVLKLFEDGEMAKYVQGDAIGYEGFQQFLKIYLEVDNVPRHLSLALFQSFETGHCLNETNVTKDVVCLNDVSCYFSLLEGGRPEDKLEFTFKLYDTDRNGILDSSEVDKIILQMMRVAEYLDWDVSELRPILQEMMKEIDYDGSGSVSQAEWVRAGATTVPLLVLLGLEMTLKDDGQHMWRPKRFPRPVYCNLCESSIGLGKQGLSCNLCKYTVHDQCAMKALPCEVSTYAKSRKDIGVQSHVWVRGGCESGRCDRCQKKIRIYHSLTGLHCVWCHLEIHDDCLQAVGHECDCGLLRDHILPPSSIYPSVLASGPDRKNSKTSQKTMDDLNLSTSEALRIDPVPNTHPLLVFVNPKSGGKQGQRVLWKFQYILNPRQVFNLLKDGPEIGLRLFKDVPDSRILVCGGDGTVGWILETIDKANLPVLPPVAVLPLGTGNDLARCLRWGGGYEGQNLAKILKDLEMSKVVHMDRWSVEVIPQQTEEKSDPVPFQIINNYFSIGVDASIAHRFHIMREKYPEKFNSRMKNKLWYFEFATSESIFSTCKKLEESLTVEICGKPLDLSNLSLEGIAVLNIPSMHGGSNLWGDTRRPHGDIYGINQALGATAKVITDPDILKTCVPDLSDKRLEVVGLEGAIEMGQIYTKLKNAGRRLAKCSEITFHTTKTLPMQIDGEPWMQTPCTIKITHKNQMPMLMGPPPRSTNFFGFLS
measured endpoint: IC50 (nM)

[a] CC(C)(c1nnc(-c2cc3c(cc2F)S(=O)(=O)C[C@H](N)C(=O)N3Cc2ccc(Oc3ccccc3)cc2)o1)S(C)(=O)=O [Example 27]
[b] CC(C)(c1nnc(-c2ccc3c(c2)N(Cc2ccc(OC4CCCC4)cc2)C(=O)[C@@H](N)CS3(=O)=O)o1)S(C)(=O)=O [Example 16]
Which value of IC50 is numerically greater: that of a or that of b ? Indicate which entry you chose by stating its label.
b
(b: 1510 nM, a: 483 nM)

----------
molecular target: DGKzeta (Homo sapiens, UniProt Q13574); assay: In vitro DGK inhibition assay (ADP-Glo, liposomes), DGKzeta; assay type: biochemical; design: hDGKzeta(1-928)-N-His; His (N); made in house; host or cells: Sf21 insect cells (baculovirus); details: 2 nM DGK ζ, 50 μM ATP, 125 uM DLG in liposomes, 1 hour reaction
Sequence (Q13574 whole entry): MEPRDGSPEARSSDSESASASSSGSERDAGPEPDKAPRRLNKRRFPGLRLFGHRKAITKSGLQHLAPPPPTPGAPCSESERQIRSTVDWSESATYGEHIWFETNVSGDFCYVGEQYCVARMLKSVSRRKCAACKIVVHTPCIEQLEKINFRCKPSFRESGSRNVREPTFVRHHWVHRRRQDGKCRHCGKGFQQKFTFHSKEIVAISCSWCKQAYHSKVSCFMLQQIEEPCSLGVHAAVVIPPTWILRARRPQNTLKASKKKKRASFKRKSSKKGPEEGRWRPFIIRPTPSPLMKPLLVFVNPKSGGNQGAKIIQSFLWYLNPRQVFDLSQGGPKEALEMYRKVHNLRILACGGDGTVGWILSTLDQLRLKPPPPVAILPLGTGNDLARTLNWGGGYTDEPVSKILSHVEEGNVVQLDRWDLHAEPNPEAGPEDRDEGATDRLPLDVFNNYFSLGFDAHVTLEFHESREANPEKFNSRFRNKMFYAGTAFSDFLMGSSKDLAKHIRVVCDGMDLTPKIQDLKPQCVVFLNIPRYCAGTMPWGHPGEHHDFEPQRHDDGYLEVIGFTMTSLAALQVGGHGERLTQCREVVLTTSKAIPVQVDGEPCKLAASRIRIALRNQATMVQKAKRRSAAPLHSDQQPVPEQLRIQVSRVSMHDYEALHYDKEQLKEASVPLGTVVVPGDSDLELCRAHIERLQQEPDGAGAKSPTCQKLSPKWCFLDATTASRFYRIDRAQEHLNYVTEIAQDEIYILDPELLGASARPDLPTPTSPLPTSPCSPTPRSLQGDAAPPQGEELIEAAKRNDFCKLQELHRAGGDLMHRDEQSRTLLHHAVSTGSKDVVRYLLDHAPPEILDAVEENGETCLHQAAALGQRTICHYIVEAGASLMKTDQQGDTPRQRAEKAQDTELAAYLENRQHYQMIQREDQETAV
pIC50: −log10 of the molar value.
measured endpoint: pIC50

[I] CC(C)(c1nc(-c2cc3c(cc2F)S(=O)(=O)C[C@H](N)C(=O)N3Cc2ccc(Oc3ccccc3)cc2)no1)S(C)(=O)=O [Example 30]
[II] CC(C)(c1nnc(-c2ccc3c(c2)N(Cc2ccc(Oc4cccc(Cl)c4Cl)cc2)C(=O)[C@@H](N)CS3(=O)=O)o1)S(C)(=O)=O [Example 32]
[III] CC(C)(c1nnc(-c2ccc3c(c2)N(Cc2ccc(-c4ccc(C#N)cc4)cc2)C(=O)[C@@H](N)CS3(=O)=O)o1)S(C)(=O)=O [Example 20]
[IV] CC(C)(c1nnc(-c2ccc3c(c2)N(Cc2ccc(Oc4cc(F)cc(C(F)(F)F)c4)cc2)C(=O)[C@@H](N)CS3(=O)=O)o1)S(C)(=O)=O [Example 39]
Using the list above, order everything by rising pIC50. // respond by listing labels in the order requested
IV, III, II, I

----------
molecular target: UniProt Q13574; assay: In vitro DGK inhibition assay (ADP-Glo, liposomes), DGKzeta; assay type: biochemical; design: hDGKzeta(1-928)-N-His; His (N); made in house; host or cells: Sf21 insect cells (baculovirus); conditions: 2 nM DGK ζ, 50 μM ATP, 125 uM DLG in liposomes, 1 hour reaction
measured endpoint: IC50 (µM)

# lookup: IC50 of `CC(C)(c1nc(-c2cc3c(cc2F)S(=O)(=O)C[C@H](N)C(=O)N3Cc2ccc(-c3noc(C(F)(F)F)n3)cc2)no1)S(C)(=O)=O`
0.256

Which IC50 value is on record for CC1(c2nnc(-c3ccc4c(c3)N(Cc3ccc(Oc5ccccc5)cc3)C(=O)[C@@H](N)CS4(=O)=O)o2)CCCS1(=O)=O (some centres unmarked) ?
0.586

Which IC50 value belongs to `CC(C)(c1nnc(-c2ccc3c(c2)N(Cc2ccc(-c4noc(C(F)(F)F)n4)cc2)C(=O)[C@@H](N)CS3(=O)=O)o1)S(C)(=O)=O` ?
3.11

I am curious: what IC50 value has been reported for `CC(C)(c1nnc(-c2ccc3c(c2)N(Cc2ccc(SC(F)(F)F)cc2)C(=O)[C@@H](N)CS3(=O)=O)o1)S(C)(=O)=O` ?
1.71

Report IC50 for `CC(C)(c1nnc(-c2ccc3c(c2)N(Cc2ccc(Oc4cccc(C(F)(F)F)c4)cc2)C(=O)[C@@H](N)CS3(=O)=O)o1)S(C)(=O)=O` please.
1.28

[a] CC(C)(c1nnc(-c2cc3c(cc2F)S(=O)(=O)C[C@H](N)C(=O)N3Cc2ccc(-c3ccc(C(F)(F)F)nc3)cc2)o1)S(C)(=O)=O
[b] CC(C)(c1nnc(-c2ccc3c(c2)N(Cc2ccc(-c4ccc(C(F)(F)F)cc4)cc2)C(=O)[C@@H](N)CS3(=O)=O)o1)S(=O)(=O)N1CCCC1
[c] COc1ccc(-c2ccc(CN3C(=O)[C@@H](N)CS(=O)(=O)c4ccc(-c5nnc(C(C)(C)S(C)(=O)=O)o5)cc43)cc2)c(C)c1
List these items ordered by IC50, big to small. Respond with an ordered listing of the labels, as requested.
b, c, a

[1] CC(C)(c1nnc(-c2cc3c(cc2F)S(=O)(=O)C[C@H](N)C(=O)N3Cc2ccc(-c3noc(C(F)(F)F)n3)cc2)o1)S(C)(=O)=O
[2] CC(C)(c1nnc(-c2ccc3c(c2)N(Cc2ccc(OCC(F)(F)F)cc2)C(=O)[C@@H](N)CS3(=O)=O)o1)S(C)(=O)=O
Out of 1 and 2 , name the one with the higher IC50. Bench note: the answer is the label of the chosen record.
2

[P] CC(C)(c1nnc(-c2ccc3c(c2)N(Cc2ccc(Oc4cccc(OC(F)(F)F)c4)cc2)C(=O)[C@@H](N)CS3(=O)=O)o1)S(C)(=O)=O
[Q] CC(C)(c1nc(-c2cc3c(cc2F)S(=O)(=O)C[C@H](N)C(=O)N3Cc2ccc(OC(F)(F)F)cc2)no1)S(C)(=O)=O
Among P and Q , which shows a numerically higher IC50 result? Refer to your chosen entry by its label in the reply.
P

----------
target: DGKalpha (Homo sapiens); assay: In vitro DGK inhibition assay (ADP-Glo, liposomes), DGKalpha; format: biochemical; design: hDGKalpha(1-735)-N-His; His (N); made in house; host or cells: Sf21 insect cells (baculovirus); details: 4 nM DGK α, 25 μM ATP, 125 uM DLG in liposomes, 1 hour reaction
pIC50: −log10 of the molar value.
measured endpoint: pIC50

Report pIC50 for CCC(CC)Oc1ccc(CN2C(=O)[C@@H](N)CS(=O)(=O)c3ccc(-c4nnc(C(C)(C)S(C)(=O)=O)o4)cc32)cc1 [Example 19] tested on DGKalpha (Homo sapiens).
5.74

So what pIC50 did CC(C)(c1nnc(-c2ccc3c(c2)N(Cc2ccc(Oc4cccc(Br)c4)cc2)C(=O)[C@@H](N)CS3(=O)=O)o1)S(C)(=O)=O [Example 60] get with DGKalpha (Homo sapiens)?
5.42

Given the entry CC(C)(c1nnc(-c2ccc3c(c2)N(Cc2ccc(OCCC(F)(F)F)cc2)C(=O)[C@@H](N)CS3(=O)=O)o1)S(C)(=O)=O [Example 23] , what pIC50 was observed with DGKalpha (Homo sapiens)?
5.51

API: value(readout= pIC50, system= DGKalpha (Homo sapiens), query= CC(C)(c1nnc(-c2ccc3c(c2)N(Cc2ccc(SC(F)(F)F)cc2)C(=O)[C@@H](N)CS3(=O)=O)o1)S(C)(=O)=O [Example 7] )
5.64

[I] CC(C)(c1nnc(-c2ccc3c(c2)N(Cc2ccc(-c4ccc(F)cn4)cc2)C(=O)[C@@H](N)CS3(=O)=O)o1)S(C)(=O)=O [Example 9]
[II] CC1(c2nnc(-c3ccc4c(c3)N(Cc3ccc(Oc5ccccc5)cc3)C(=O)[C@@H](N)CS4(=O)=O)o2)CCCS1(=O)=O (stereo partly shown) [Example 58]
Higher pIC50 between I and II ? // output: label of the selected item
I
